From: ChEMBL document CHEMBL5260810

# Tested on: MCF-10A
# ASSAY SUMMARY: Cytotoxicity against human MCF-10A cells measured after 3 days
# Type: functional, cell-based
# PARTICULARS: 72 h
MEASUREMENT KIND: IC50 (µM)

* C/C=C/Cn1cc(-c2cc(OC)c(C(=O)N3CCOCC3)cc2OC)c2cc(C)[nH]c2c1=O | 5

###

# System: NCI-H2444
# ASSAY SUMMARY: Cytotoxicity against human NCI-H2444 cells measured after 3 days
# Type: functional, cell-based
# PARTICULARS: NCI-H2444, 72 h
MEASUREMENT KIND: IC50 (µM)

• C/C=C/Cn1cc(-c2cc(OC)c(C(=O)N3CCOCC3)cc2OC)c2cc(C)[nH]c2c1=O = 5
